System: 233499-124-R-J3-PDC spheroids with HUVEC/MSC, viability
Experiment: Anticancer human tumor 233499-124-R-J3-PDC patient-derived colon adenocarcinoma cell line growth inhibition [PI3K]
Conditions: second compound 0.316 µM; first compound 3.16 µM; hits give low values
Parameter Measured: viability, T/C (%)
Write the value in % as a bare number.

Worked examples follow.
Which viability, T/C is reported for this molecule? CC1(C)CCC(CN2CCN(c3ccc(C(=O)NS(=O)(=O)c4ccc(NCC5CCOCC5)c([N+](=O)[O-])c4)c(Oc4cnc5[nH]ccc5c4)c3)CC2)=C(c2ccc(Cl)cc2)C1 + COc1c(OCCCN2CCOCC2)ccc2c3n(c(=NC(=O)c4cnc(N)nc4)nc12)CCN3
17.5

Now give it for Cn1nccc1Nc1nccc(-c2ccn(C(CO)c3ccc(Cl)c(F)c3)c(=O)c2)n1 (stereo not given) + CC(Nc1ncnc2nc[nH]c12)c1cc2cccc(Cl)c2c(=O)n1-c1ccccc1 too.
78.1

For CC1(C)CCC(Nc2ncc(C(F)(F)F)c(-c3c[nH]c4c(P(C)(C)=O)c(C#N)ccc34)n2)CN1 (stereo not given) + Cc1nc(NC(=O)N2CCCC2C(N)=O)sc1-c1ccnc(C(C)(C)C(F)(F)F)c1 then?
16.6

Would you mind doing Cn1nccc1Nc1nccc(-c2ccn(C(CO)c3ccc(Cl)c(F)c3)c(=O)c2)n1 (stereo not given) + COc1c(OCCCN2CCOCC2)ccc2c3n(c(=NC(=O)c4cnc(N)nc4)nc12)CCN3 as well?
12

// below: viability, T/C requested for another molecule
Find the recorded viability, T/C belonging to C#Cc1c(F)ccc2cc(O)cc(-c3ncc4c(N5CC6CCC(C5)N6)nc(OCC56CCCN5CC(F)C6)nc4c3F)c12 (stereo not given) + Cc1nc(NC(=O)N2CCCC2C(N)=O)sc1-c1ccnc(C(C)(C)C(F)(F)F)c1 and report it.
50.9

----------
Test system: 233499-124-R-J3-PDC spheroids with HUVEC/MSC, viability
Assay: Anticancer human tumor 233499-124-R-J3-PDC cell line growth inhibition [PI3K];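 also: spheroids exposed to agents for seven days before readout; percent viability relative to DMSO vehicle control taken as 100%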
Conditions: second compound 0.01 µM; first compound 0.000316 µM; hits give low values
Response field label takes Met when viability, T/C is strictly below 90% and Not met in all other cases.

Here's what some known entries look like.
A record lists Cn1ncnc1[C@H]1c2n[nH]c(=O)c3cc(F)cc(c23)N[C@@H]1c1ccc(F)cc1 + CC(Nc1ccc2c(c1)OCCn1cc(N3C(=O)OCC3C(F)F)nc1-2)C(N)=O . Is its viability, T/C below 90%?
Met

Further, for CC(=O)c1c(C)c2cnc(Nc3ccc(N4CCNCC4)cn3)nc2n(C2CCCC2)c1=O + CC(Nc1ccc2c(c1)OCCn1cc(N3C(=O)OCC3C(F)F)nc1-2)C(N)=O ?
Met

Then CC(C)n1nc(-c2ccc3oc(N)nc3c2)c2c(N)ncnc21 + COc1c(OCCCN2CCOCC2)ccc2c3n(c(=NC(=O)c4cnc(N)nc4)nc12)CCN3 ?
Met

Next entry: CC(=O)c1c(C)c2cnc(Nc3ccc(N4CCNCC4)cn3)nc2n(C2CCCC2)c1=O + COc1c(OCCCN2CCOCC2)ccc2c3n(c(=NC(=O)c4cnc(N)nc4)nc12)CCN3
Met

For the next question, use this compound.
Is the reported viability, T/C for CC(C)n1nc(-c2ccc3oc(N)nc3c2)c2c(N)ncnc21 + CC(Nc1ccc2c(c1)OCCn1cc(N3C(=O)OCC3C(F)F)nc1-2)C(N)=O strictly below 90%?
Not met

----------
System: 233499-124-R-J3-PDC spheroids with HUVEC/MSC, viability
Assay: Anticancer human tumor 233499-124-R-J3-PDC cell line growth inhibition [PI3K];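 also: spheroids exposed to agents for seven days before readout; percent viability relative to DMSO vehicle control taken as 100%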
Conditions: second compound 0.316 µM; first compound 3.16 µM; hits give low values
Parameter Measured: viability, T/C (%)
The answer is to be given in %; state only the numeric part.

Worked cases, viability, T/C given:
Give recorded viability, T/C with 233499-124-R-J3-PDC spheroids with HUVEC/MSC, viability for the following compound: CC1(C)CCC(Nc2ncc(C(F)(F)F)c(-c3c[nH]c4c(P(C)(C)=O)c(C#N)ccc34)n2)CN1 (stereo unspecified) + CC(Nc1ccc2c(c1)OCCn1cc(N3C(=O)OCC3C(F)F)nc1-2)C(N)=O
20.7

Another: CC1(C)CCC(CN2CCN(c3ccc(C(=O)NS(=O)(=O)c4ccc(NCC5CCOCC5)c([N+](=O)[O-])c4)c(Oc4cnc5[nH]ccc5c4)c3)CC2)=C(c2ccc(Cl)cc2)C1 + CC(Nc1ncnc2nc[nH]c12)c1cc2cccc(Cl)c2c(=O)n1-c1ccccc1
96.7

Also CCCS(=O)(=O)Nc1ccc(F)c(C(=O)c2c[nH]c3ncc(-c4ccc(Cl)cc4)cc23)c1F + Cc1nc(NC(=O)N2CCCC2C(N)=O)sc1-c1ccnc(C(C)(C)C(F)(F)F)c1 , if possible.
78.2

Consider next the compound CNC(=O)c1ccc(N2C(=S)N(c3ccc(C#N)c(C(F)(F)F)c3)C(=O)C2(C)C)cc1F + Cc1nc(NC(=O)N2CCCC2C(N)=O)sc1-c1ccnc(C(C)(C)C(F)(F)F)c1 in the same way.
85.9

Further cases:
Record lookup: for 233499-124-R-J3-PDC spheroids with HUVEC/MSC, viability, what viability, T/C belongs to CNC(=O)c1ccc(N2C(=S)N(c3ccc(C#N)c(C(F)(F)F)c3)C(=O)C2(C)C)cc1F + CC(Nc1ccc2c(c1)OCCn1cc(N3C(=O)OCC3C(F)F)nc1-2)C(N)=O ?
59.1

Follow-up item: C#Cc1c(F)ccc2cc(O)cc(-c3ncc4c(N5CC6CCC(C5)N6)nc(OCC56CCCN5CC(F)C6)nc4c3F)c12 (stereo unspecified) + CC(Nc1ncnc2nc[nH]c12)c1cc2cccc(Cl)c2c(=O)n1-c1ccccc1
87.9

Another compound to look at: CC(C)NCC(C(=O)N1CCN(c2ncnc3c2C(C)CC3O)CC1)c1ccc(Cl)cc1 (stereo unspecified) + CC(Nc1ccc2c(c1)OCCn1cc(N3C(=O)OCC3C(F)F)nc1-2)C(N)=O
59.9

Also check CC(C)NCC(C(=O)N1CCN(c2ncnc3c2C(C)CC3O)CC1)c1ccc(Cl)cc1 (stereo unspecified) + Cc1nc(NC(=O)N2CCCC2C(N)=O)sc1-c1ccnc(C(C)(C)C(F)(F)F)c1
74.1

Then C#Cc1c(F)ccc2cc(O)cc(-c3ncc4c(N5CC6CCC(C5)N6)nc(OCC56CCCN5CC(F)C6)nc4c3F)c12 (stereo unspecified) + CC(Nc1ccc2c(c1)OCCn1cc(N3C(=O)OCC3C(F)F)nc1-2)C(N)=O ?
59.2

Same thing, different compound: CC(Cn1ccc(-c2ccc(C#N)c(Cl)c2)n1)NC(=O)c1cc(C(C)O)[nH]n1 (stereo unspecified) + Cc1nc(NC(=O)N2CCCC2C(N)=O)sc1-c1ccnc(C(C)(C)C(F)(F)F)c1
86.7

// repeat for Cn1ncc(Cl)c1-c1cc(C(=O)NC(CN)Cc2cccc(F)c2)sc1Cl (stereo unspecified) + COc1c(OCCCN2CCOCC2)ccc2c3n(c(=NC(=O)c4cnc(N)nc4)nc12)CCN3 and report
31.9

One more compound: C=CC(=O)N1CCN(c2nc(=O)n(-c3c(C)ccnc3C(C)C)c3nc(-c4c(O)cccc4F)c(F)cc23)C(C)C1 (stereo unspecified) + CC(Nc1ncnc2nc[nH]c12)c1cc2cccc(Cl)c2c(=O)n1-c1ccccc1
90

Then Cn1nccc1Nc1nccc(-c2ccn(C(CO)c3ccc(Cl)c(F)c3)c(=O)c2)n1 (stereo unspecified) + Cc1nc(NC(=O)N2CCCC2C(N)=O)sc1-c1ccnc(C(C)(C)C(F)(F)F)c1 ?
57.7

Try this compound next: C=CC(=O)N1CCN(c2nc(=O)n(-c3c(C)ccnc3C(C)C)c3nc(-c4c(O)cccc4F)c(F)cc23)C(C)C1 (stereo unspecified) + Cc1nc(NC(=O)N2CCCC2C(N)=O)sc1-c1ccnc(C(C)(C)C(F)(F)F)c1
67.5

Another compound: CC(C)NCC(C(=O)N1CCN(c2ncnc3c2C(C)CC3O)CC1)c1ccc(Cl)cc1 (stereo unspecified) + CC(Nc1ncnc2nc[nH]c12)c1cc2cccc(Cl)c2c(=O)n1-c1ccccc1
86.9

Follow-up entry: CNC(=O)c1ccc(N2C(=S)N(c3ccc(C#N)c(C(F)(F)F)c3)C(=O)C2(C)C)cc1F + CC(Nc1ncnc2nc[nH]c12)c1cc2cccc(Cl)c2c(=O)n1-c1ccccc1
71.7

Moving on to CC1(C)CCC(Nc2ncc(C(F)(F)F)c(-c3c[nH]c4c(P(C)(C)=O)c(C#N)ccc34)n2)CN1 (stereo unspecified) + CC(Nc1ncnc2nc[nH]c12)c1cc2cccc(Cl)c2c(=O)n1-c1ccccc1
34

----------
Tested on: 233499-124-R-J3-PDC spheroids with HUVEC/MSC, viability
Test: Anticancer human tumor 233499-124-R-J3-PDC cell line growth inhibition [PI3K];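 also: spheroids exposed to agents for seven days before readout; percent viability relative to DMSO vehicle control taken as 100%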
Conditions: second compound 1 µM; first compound 1 µM; hits give low values
Parameter Measured: viability, T/C (%)
Respond with the bare value in %.

Dear colleague, I am looking for the recorded viability, T/C of the following compound: C=CC(=O)N1CCN(c2nc(=O)n(-c3c(C)ccnc3C(C)C)c3nc(-c4c(O)cccc4F)c(F)cc23)C(C)C1 (stereo not given) + CC(Nc1ccc2c(c1)OCCn1cc(N3C(=O)OCC3C(F)F)nc1-2)C(N)=O
56.3

Next: CNC(=O)c1ccc(N2C(=S)N(c3ccc(C#N)c(C(F)(F)F)c3)C(=O)C2(C)C)cc1F + Cc1nc(NC(=O)N2CCCC2C(N)=O)sc1-c1ccnc(C(C)(C)C(F)(F)F)c1
61.5

C#Cc1c(F)ccc2cc(O)cc(-c3ncc4c(N5CC6CCC(C5)N6)nc(OCC56CCCN5CC(F)C6)nc4c3F)c12 (stereo not given) + CC(Nc1ccc2c(c1)OCCn1cc(N3C(=O)OCC3C(F)F)nc1-2)C(N)=O , same question.
44

Can you check Cn1ncc(Cl)c1-c1cc(C(=O)NC(CN)Cc2cccc(F)c2)sc1Cl (stereo not given) + CC(Nc1ncnc2nc[nH]c12)c1cc2cccc(Cl)c2c(=O)n1-c1ccccc1 next?
73.5

Please look at the following compound next.
GET /values?readout=viability, T/C&item= C[C@@H](NC(=O)c1ncnc(N)c1Cl)c1ncc(C(=O)Nc2cc(C(F)(F)F)c(Cl)cn2)s1 + CC(Nc1ccc2c(c1)OCCn1cc(N3C(=O)OCC3C(F)F)nc1-2)C(N)=O
83
